Origin of measurements: paper PMC3427316

Molecular target: NA of D0 isolate A/Paris/7976/2010 (223I 100%, 275H 100%) (Influenza A virus, UniProt V9TJZ0)
Settings: read-out: Ki +/− SD
PROPERTY_MEASURED: Ki (pM)
Kindly answer with a numeric value in pM, unit omitted.

Measured Ki of CCC(CC)O[C@@H]1C=C(C(=O)O)C[C@H](N)[C@H]1NC(C)=O [OC, oseltamivir carboxylate] : 280
